Origin of values: patent US9113629B2

System: Key Broadleaf Weed and Crop Species
Assay: Post-emergent Test II herbicidal activity (Table 5)
Assay type: in vivo
Details: post-emergence, 336 h; CHEAL: lambsquarters (Chenopodium album); application rate 70 g ai/ha; 14 days after application; read-out: Visual Growth Reduction (%) 14 Days After Application, CHEAL
Excerpt: Post-emergent Test II: Seeds or nutlets of the desired test plant species were planted in Sun Gro Metro-Mix® 360 planting mixture, which typically has a pH of 6.0 to 6.8 and an organic matter content of about 30 percent, in plastic pots with a surface area of 64 square centimeters. When required to ensure good germination and healthy plants, a fungicide treatment and/or other chemical or physical treatment was applied. […]
Recorded pest or weed control at 70 g/ha by entry
OBSERVABLE: pest or weed control at 70 g/ha

compound="COC(=O)c1nc(-c2ccc(I)cc2F)c(F)c(N)c1Cl [Compound 9]" result="0 to 29%"
compound="Nc1c(F)c(-c2ccc(OC(F)F)cc2F)nc(C(=O)O)c1Cl [Compound 140]" result="0 to 29%"
compound="Nc1cc(-c2ccc(Br)c(F)c2F)nc(C(=O)O)c1Cl [Compound 91]" result="85 to 94%"
compound="COc1c(N)nc(-c2ccc(I)c(F)c2F)nc1C(=O)O [Compound 89]" result="95 to 100%"
compound="C#Cc1ccc(-c2nc(C(=O)O)c(Cl)c(N)c2F)cc1 [Compound 62]" result="85 to 94%"
